Give log10 of TGI for every item shown.
- Test system: SR leukemia
- assayOverview: NCI tumour cell line growth inhibition, 48 h
Log10 applied to TGI; unit prior to transform: µM.

State the recorded log10 of TGI for this entry: O=C(COC(c1ccc(F)cc1)c1ccc(F)cc1)N1CCN(CCCc2ccccc2)CC1
1.27

Also COC(=O)C1=C(C(=O)Nc2cccnc2)C2OC1(C(Cc1ccccc1)Oc1ccccc1)C1OC21 (configuration not stated) ?
0.71

Continue with COc1cc(C2=Nc3c/c(=C\c4c(O)[nH]c5ccc(Cl)cc45)ccc3=N2)cc(OC)c1OC
0.70

Entry Cc1nc2ccc(N=Nc3c(O)ccc4ccccc34)cc2[nH]1 please
1.74

What about this compound? CCOc1ccc(/C=N/Nc2cc(C)nc3ccc(Cl)cc23)cc1
0.54

Please answer likewise for CCCCCCCCC(=O)CCCCCCCCC(=O)O
1.63

Okay, and CC(C)Cc1ccc(C(C)/C=C2\CCC(CN3CCOCC3)C2=O)cc1 (configuration not stated) ?
1.14

Now give it for O=c1oc2c(Br)c(O)c(Br)cc2c2ccccc12 too.
1.85

And the next one, COc1cccc2c3cccc(OC)c3c3[nH]cnc3c12 ?
0.71

###

- Tested on: A498 renal
- assayOverview: NCI tumour cell line growth inhibition, 48 h
reportedProperty: TGI

Record request: TGI value, item CC(C)Cc1ccc(C(C)/C=C2\CCC(CN3CCOCC3)C2=O)cc1 (stereo unspecified)
27 µM

Entry Cc1ccc(NC(=O)C2C(=O)C(=O)N(c3ccc(C)cc3)C2=O)cc1 (stereo unspecified) please
> 100 µM

Entry to check: O=C(Nc1cccnc1)c1cccs1
> 100 µM

Repeat with CNC(=O)c1cc(Oc2ccc3nc(NC(=O)c4cc(C(F)(F)F)cc(C(F)(F)F)c4)sc3c2)ccn1
4.51 µM

Moving on to the next compound: C[C@H](Nc1ccc(C#N)n(C)c1=O)c1cc2cc(Cl)ccc2[nH]c1=O
92.2 µM

Also CC(C)c1ccc2c(c1)[C@@]1(C)CC[C@H](C)C(C)(C)C1CC2 (stereo partly specified) , if possible.
34.9 µM

###

- Test system: RXF 393 renal
- assayOverview: NCI tumour cell line growth inhibition, 48 h; in the data active means GI50 below about 0.43 µM; inactive means the rest
Returns: one label drawn from active, inactive

Please let me know the test result on file for CCc1ccc(/C(C#N)=C/C=C/c2ccccc2)cc1 .
inactive

Same thing, different compound: C[C@H](Nc1ccc(C#N)n(C)c1=O)c1cc2cc(Cl)ccc2[nH]c1=O
inactive

Similarly, C[C@H]1O[C@@H](O[C@H]2[C@@H](O)C[C@H](O[C@H]3[C@@H](O)C[C@H](O[C@H]4CC[C@]5(C)C6C[C@@H](O)[C@]7(C)[C@@H](C8=CC(=O)OC8)CC[C@]7(O)C6CC[C@@H]5C4)O[C@@H]3C)O[C@@H]2C)C[C@H](O)[C@@H]1O (stereo not given in full) ?
active

Next: O=C(/C=C/c1ccccc1Cl)c1ccc(O)cc1
inactive

Field entry: COc1cc(-c2nn(C)nc2-c2cc3ccccc3s2)cc(OC)c1OC
active

###

- System: SF-539 CNS
- assayOverview: NCI tumour cell line growth inhibition, 48 h
Give measured TGI for each item. Keep answers brief.
Reply with just the number (in µM).

May I ask what TGI has been recorded for Nc1cc(OCc2ccccc2)c(OCc2ccccc2)cc1C=O ?
31.7

Next up: O=S1c2ccccc2N=C(c2ccc3ccccc3c2)CC1c1ccccc1 (stereo unspecified)
37.7

Entry O=C(CSc1nc2ccc(Cl)cc2c(=O)n1-c1ccccc1)N=Nc1c(O)[nH]c2ccc(F)cc12 please
15.2

Also check O=C(/C=C\c1cccc([N+](=O)[O-])c1)c1ccccc1
9.81

###

Assignment: determine reported TGI for the given compounds.
- Tested on: SK-OV-3 ovarian
- assayOverview: NCI tumour cell line growth inhibition, 48 h

Report TGI for O=S1(=O)COc2ccccc2-c2ncncc21 tested on SK-OV-3 ovarian.
> 100 µM

Can you handle C=CCOC1=C2CC[C@H](O)[C@@]2(C)CCC1=O next?
> 100 µM

Could you do the same for CC(C)(C)OC(=O)N1C(C2=COc3ccccc3O2)=COc2cccnc21 , please?
3.99 µM

Same question, CC(Br)C(=O)c1ccc2cc(Br)c3ccccc3c2c1 (stereo unspecified) this time
30.8 µM

Another: CCc1ccc(/C(C#N)=C/C=C/c2ccccc2)cc1
> 29.3 µM

Check CC12Oc3ccc4ccccc4c3C1c1c(ccc3ccccc13)O2 (stereo unspecified) too.
> 100 µM

###

- System: HOP-18 NSCLC
- assayOverview: NCI tumour cell line growth inhibition, 48 h
reportedProperty: TGI

Would you kindly share the measured TGI for CCOC(=O)NC(=O)c1cn(CCCCCCCCCCC(=O)N2CCN(CCn3cc(C(=O)NC(=O)OCC)c(=O)[nH]c3=O)CC2)c(=O)[nH]c1=O ?
> 100 µM

Next: CSc1nc2nc(C)c(C)nc2c(=O)[nH]1
> 100 µM

Quick one: COC(=O)C(=C\Sc1ccccc1)/C=C/C(=O)OC(C)(C)C
30 µM

Now the molecule CC1=C(C)C(=O)c2c(cc3c4ccccc4ccn23)C1=O
> 100 µM

Same lookup for COc1ccc(NC(=O)CSc2nnc(Cc3ccccc3)o2)cc1 , please.
> 100 µM

###

- Test system: K-562 leukemia
- assayOverview: NCI tumour cell line growth inhibition, 48 h
reportedProperty: GI50

For [Ce+3].[Cl-].[O-]/N=C(\c1ccccc1)c1ccccn1.[O-]/N=C(\c1ccccc1)c1ccccn1.[O-]/N=C(\c1ccccc1)c1ccccn1 , what is its reported GI50?
36300 nM

Also check NC(=O)c1ncn(C2OC(CO)C(O)C2O)n1 (stereo unspecified)
51900 nM

What do we get for COC(=O)C1=C(C(=O)Nc2cccnc2)C2OC1(C(Cc1ccccc1)Oc1ccccc1)C1OC21 (stereo unspecified) ?
2030 nM

Another molecule to look at: CNC(=O)c1cc(Oc2ccc3nc(NC(=O)c4cc(C(F)(F)F)cc(C(F)(F)F)c4)sc3c2)ccn1
3530 nM

What do you have for CCc1ccc(/C(C#N)=C/C=C/c2ccccc2)cc1 ?
882 nM

Try the molecule CCC[CH2][Sn]([CH2]CCC)([O]C(=O)c1cc(OC)c(OC)c(OC)c1)[O]C(=O)c1cc(OC)c(OC)c(OC)c1
290 nM

###

- System: A549 NSCLC
- assayOverview: NCI tumour cell line growth inhibition, 48 h; in the data active = GI50 below about 0.43 µM; inactive = the rest
Answer with one of the outcomes given here: yes (1) = active, no (0) = inactive

What is the recorded call for this compound in the test? CCCCCCCCCCCCCCCCCC(=O)[O][Sn]([CH2]CCC)([CH2]CCC)[CH2]CCC
yes (1)

Same thing, different compound: C[C@H](Nc1ccc(C#N)n(C)c1=O)c1cc2cc(Cl)ccc2[nH]c1=O
no (0)

Now this one: Cc1oncc1C(=O)Nc1ccc(C(F)(F)F)cc1
no (0)

Now the same for O=C(Nc1cccnc1)c1cccs1
no (0)

Same question, C=C1CCCC(C)(C)[C@@H]1CC/C(C)=C/Cn1c2cccc(=O)c-2nc2ccccc21 this time
no (0)

Follow-up item: O=C(Nc1cccc(-n2cc(-c3ccncc3)c(-c3cc(O)cc(Cl)c3)n2)c1)Nc1ccc(Cl)c(Cl)c1
no (0)

Then what about the compound COc1cccc(C2=NN(C(C)=O)C(c3cc(OC)c(OC)c(OC)c3)C2)c1 (stereo not drawn) ?
no (0)

Please answer likewise for O=Cc1ncc(-c2ccc(C(F)(F)F)cc2)c(NC2CCCCCC2)n1
no (0)

Another compound: O=C(O[C@H]1CN[C@H](C#Cc2cc3ncnc(Nc4ccc(Cc5ccccc5)cc4)c3s2)C1)N1CCOCC1
no (0)

Also NCC(=O)Nc1ccc(-n2nc(C(F)(F)F)cc2-c2ccc3c(ccc4ccccc43)c2)cc1 ?
no (0)

Again, but for Clc1ccc(N/N=C/c2ccccn2)nc1
no (0)

Let us now turn to COc1cc2c3c(n(CCCN=[N+]=[N-])c(=O)c2cc1OC)-c1ccc(N)cc1C3=O
yes (1)

Repeat for the following compound: C=CC[Se]C(=O)c1ccccc1OC(C)=O
no (0)

Continue with [Ce+3].[Cl-].[O-]/N=C(\c1ccccc1)c1ccccn1.[O-]/N=C(\c1ccccc1)c1ccccn1.[O-]/N=C(\c1ccccc1)c1ccccn1
no (0)

Now consider CCc1ccc(/C(C#N)=C/C=C/c2ccccc2)cc1 and answer again.
no (0)

Moving on to CCCCN(CCCC)c1cc(C(=O)CCCCCN)c2ccccc2n1
no (0)

Further, for COC(=O)C1=C2C3=C(C(=O)c4ccccc4C3=O)N(Cc3ccccc3)C2(OC(C)=O)C=CC1=O (stereo not drawn) ?
no (0)

One more compound: COc1cc(C2=Nc3c/c(=C\c4c(O)[nH]c5ccc(Cl)cc45)ccc3=N2)cc(OC)c1OC
no (0)

###

- Tested on: RXF 393 renal
- assayOverview: NCI tumour cell line growth inhibition, 48 h
reportedProperty: log10(TGI) (log10 of the value in µM)
Remember, log10 of TGI, in µM.

For Fc1ccc(C2(CCCN3CCc4[nH]c5cc(F)ccc5c4C3)OCCO2)cc1 , what is its reported log10(TGI)?
1.43

Next entry: [Ce+3].[Cl-].[O-]/N=C(\c1ccccc1)c1ccccn1.[O-]/N=C(\c1ccccc1)c1ccccn1.[O-]/N=C(\c1ccccc1)c1ccccn1
1.98

Further, for COc1cc2c3c(n(CCCN=[N+]=[N-])c(=O)c2cc1OC)-c1ccc(N)cc1C3=O ?
-0.33

Would you mind doing Clc1ccc(N/N=C/c2ccccn2)nc1 as well?
1.20

Also check Cc1cc(=O)cc2sc3cc(Cl)ccc3nc1-2
1.48

Now give it for C#CCn1c(=O)c(C)cn(/C(=C/C(=O)OCC)C(=O)OCC)c1=O too.
0.30

Moving on to the next molecule: O=C(/C=C\c1cccc([N+](=O)[O-])c1)c1ccccc1
0.71

// query: COc1cc(C2=Nc3c/c(=C\c4c(O)[nH]c5ccc(Cl)cc45)ccc3=N2)cc(OC)c1OC
0.87

Same lookup for COc1ccc2cc(-c3ccc(OC)c(OC)c3)c(=O)oc2c1 , please.
1.83
